Reported values of IC50 for individual entries
System: Kuramochi cell line
Test: Cell Viability Assay (Cell Titer-Glo, 7 days)
Format: cell-based
Settings: 168 h, Kuramochi cells, 7 days incubation, read-out: PARG Cell viability (IC50)
Description: Cell viability studies were conducted in Kuramochi cell line. Cells were maintained in RPMI (Hyclone, Catalog #: SH3080901B) supplemented with 10% v/v FBS (AusGeneX, Catalog #: FBS500-S), 1% v/v Penicillin Streptomycin (Gibco, Catalog #: 15140122). […] Cell viability was measured using the Cell Titer-Glo reagent (Promega, Catalog #: G7573) as manufacturer's instructions. Luminescence signal was measured with a multimode plate reader (Perkin Elmer, Envision 2105 or BMG, ClarioStar Plus). […]
REPORTED METRIC: IC50

Cn1ccnc1N1CCN(c2ncnc3c2c2ccc(S(=O)(=O)NC4(C#N)CC4)cc2n3-c2nnc(C(F)F)s2)CC1 ... 100 to 1000 nM
COC1(C(F)(F)F)CCN(c2ncnc3c2c2ccc(S(=O)(=O)NC4(C#N)CC4)cc2n3-c2nnc(C(F)F)s2)CC1 ... 100 to 1000 nM
C[C@@H]1CN(C)[C@@H](C)CN1c1ncnc2c1c1ccc(S(=O)(=O)NC3(C#N)CC3)cc1n2-c1nnc(C(F)F)s1 ... < 100 nM
CC(C)C(=O)N1C[C@@H](C)N(c2ncnc3c2c2ccc(S(=O)(=O)NC4(C)CC4)cc2n3-c2nnc(C(F)F)s2)C[C@@H]1C ... < 100 nM
N#CC1(NS(=O)(=O)c2ccc3c4c(N5CCN(CC6CC6)C(=O)C5)ncnc4n(-c4nnc(C(F)F)s4)c3c2)CC1 ... < 100 nM
CC(C)S(=O)(=O)N1CCC(c2ncnc3c2c2ccc(S(=O)(=O)NC4(C#N)CC4)cc2n3-c2nnc(C(F)F)s2)CC1 ... < 100 nM
N#CC1(NS(=O)(=O)c2ccc3c4c(N5CC6OCCOC6C5)ncnc4n(-c4nnc(C(F)F)s4)c3c2)CC1 (stereo not shown) ... 100 to 1000 nM
CC(C)OC(=O)N1CCN(c2ncnc3c2c2ccc(S(=O)(=O)NC4(C#N)CC4)cc2n3-c2nnc(C(F)F)s2)CC1 ... 100 to 1000 nM
CN(C)C(=O)N1CCC(c2ncnc3c2c2ccc(S(=O)(=O)NC4(C)CC4)cc2n3-c2nnc(C(F)F)s2)CC1 ... < 100 nM
N#CC1(NS(=O)(=O)c2ccc3c4c(N5CCCOCC5)ncnc4n(-c4nnc(C(F)F)s4)c3c2)CC1 ... < 100 nM
CC(C)c1nnc(-n2c3cc(S(=O)(=O)NC4(C#N)CC4)ccc3c3c(N4CCN(C(=O)C5CC5)CC4)ncnc32)s1 ... 100 to 1000 nM
C[C@@H]1CN(c2ncnc3c2c2ccc(S(=O)(=O)NC4(C#N)CC4)cc2n3-c2nnc(C(F)F)s2)C[C@H](C)N1C(=O)C1COC1 ... < 100 nM
CN1CCC(c2ncnc3c2c2ccc(S(=O)(=O)NC4(C#N)CC4)cc2n3-c2nnc(C(F)F)s2)CC1 ... < 100 nM

---

Target: hPARG (C-terminal His6-tag) (Homo sapiens (Human), UniProt Q86W56)
Sequence (Q86W56 whole entry): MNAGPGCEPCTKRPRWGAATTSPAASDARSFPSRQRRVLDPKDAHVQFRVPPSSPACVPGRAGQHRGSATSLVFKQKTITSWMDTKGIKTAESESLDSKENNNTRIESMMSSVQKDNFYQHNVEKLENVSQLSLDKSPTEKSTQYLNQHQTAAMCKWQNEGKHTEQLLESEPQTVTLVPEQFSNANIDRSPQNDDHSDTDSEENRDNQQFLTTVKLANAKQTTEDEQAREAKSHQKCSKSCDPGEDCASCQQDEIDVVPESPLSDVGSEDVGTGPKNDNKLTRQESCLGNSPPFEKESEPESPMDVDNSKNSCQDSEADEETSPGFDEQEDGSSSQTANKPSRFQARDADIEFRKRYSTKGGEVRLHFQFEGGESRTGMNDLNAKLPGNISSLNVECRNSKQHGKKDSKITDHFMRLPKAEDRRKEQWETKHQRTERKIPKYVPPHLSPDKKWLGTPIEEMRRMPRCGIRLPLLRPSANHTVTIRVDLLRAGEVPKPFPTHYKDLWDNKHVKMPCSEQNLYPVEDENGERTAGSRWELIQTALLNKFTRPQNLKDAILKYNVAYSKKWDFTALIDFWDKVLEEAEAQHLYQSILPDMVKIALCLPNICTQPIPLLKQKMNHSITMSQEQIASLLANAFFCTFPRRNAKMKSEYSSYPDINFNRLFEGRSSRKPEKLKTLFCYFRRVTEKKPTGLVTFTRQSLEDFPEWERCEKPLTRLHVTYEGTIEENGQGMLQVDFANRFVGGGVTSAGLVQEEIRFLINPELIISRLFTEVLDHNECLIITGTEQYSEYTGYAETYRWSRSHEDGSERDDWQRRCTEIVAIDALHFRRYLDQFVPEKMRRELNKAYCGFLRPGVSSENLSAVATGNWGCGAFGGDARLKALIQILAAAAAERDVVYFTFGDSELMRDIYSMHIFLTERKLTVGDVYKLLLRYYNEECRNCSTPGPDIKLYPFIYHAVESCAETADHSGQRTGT
Parameter: IC50. Scope: all listed entries.
REPORTED METRIC: IC50

CC(C)C(=O)N1C[C@@H](C)N(c2ncnc3c2c2ccc(S(=O)(=O)NC4(C#N)CC4)cc2n3-c2nnc(C(F)F)s2)C[C@@H]1C [Example 33] ... < 100 nM
C[C@@H]1CN(c2ncnc3c2c2ccc(S(=O)(=O)NC4(C#N)CC4)cc2n3-c2nnc(C(F)F)s2)C[C@H](C)N1C(=O)C1CC1 [Example 29] ... < 100 nM
N#CC1(NS(=O)(=O)c2ccc3c4c(N5CCC(F)(F)CC5)ncnc4n(-c4nnc(C(F)F)s4)c3c2)CC1 [Example 52] ... 100 to 1000 nM
CC(C)C(=O)N1CCN(c2ncnc3c2c2ccc(S(=O)(=O)NC4(C#N)CC4)cc2n3-c2nnc(C(F)F)s2)CC1 [Example 11] ... < 100 nM
N#CC1(NS(=O)(=O)c2ccc3c4c(C5CCN(C(=O)N6CC[C@H](O)C6)CC5)ncnc4n(-c4nnc(C(F)F)s4)c3c2)CC1 [Example 130] ... < 100 nM
COC[C@H]1CN(c2ncnc3c2c2ccc(S(=O)(=O)NC4(C#N)CC4)cc2n3-c2nnc(C(F)F)s2)CCN1C [Example 204] ... < 100 nM

---

System: Kuramochi cell line
Assay: Cell Viability Assay (Cell Titer-Glo, 7 days)
Format: cell-based
Details: 168 h, Kuramochi cells, 7 days incubation, read-out: PARG Cell viability (IC50)
Consider the following compounds and their measured IC50 readings.
REPORTED METRIC: IC50

CC(C)C(=O)N1CCC(c2ccnc3c2c2ccc(S(=O)(=O)NC4(C#N)CC4)cc2n3-c2nnc(C(F)F)s2)CC1 ... 100 to 1000 nM
N#CC1(NS(=O)(=O)c2ccc3c4c(N5CCC(O)(C(F)(F)F)CC5)ncnc4n(-c4nnc(C(F)F)s4)c3c2)CC1 ... < 100 nM
Cc1ccc(C(=O)N2CCN(c3ncnc4c3c3ccc(S(=O)(=O)NC5(C#N)CC5)cc3n4-c3nnc(C(F)F)s3)CC2)cn1 ... 100 to 1000 nM
CCC(=O)N1CCC(c2ncnc3c2c2ccc(S(=O)(=O)NC4(C#N)CC4)cc2n3-c2nnc(C(F)F)s2)CC1 ... < 100 nM
CC(C)C(=O)N1C=CC(c2ncnc3c2c2cc(F)c(S(=O)(=O)NC4(C#N)CC4)cc2n3-c2nnc(C(F)F)s2)CC1 (stereo not shown) ... < 100 nM
CC(C)(C)OC(=O)N1CCC(c2ncnc3c2c2ccc(S(=O)(=O)NC4(C#N)CC4)cc2n3-c2nnc(C(F)F)s2)CC1 ... 100 to 1000 nM
N#CC1(NS(=O)(=O)c2cc3c(cc2F)c2c(N4CCC(O)CC4)ncnc2n3-c2nnc(C(F)F)s2)CC1 ... < 100 nM

---

// reported pIC50 for each item listed
Test system: Kuramochi cell line
Assay: Cell Viability Assay (Cell Titer-Glo, 7 days)
Type: cell-based
Conditions: 168 h, Kuramochi cells, 7 days incubation, read-out: PARG Cell viability (IC50)
pIC50: −log10 of the molar value.
REPORTED METRIC: pIC50

CC(=O)N1CCC(c2ncnc3c2c2ccc(S(=O)(=O)NC4(C#N)CC4)cc2n3-c2nnc(C(F)F)s2)CC1 ... > 7.00
N#CC1(NS(=O)(=O)c2ccc3c4c(N5CCN6CCOC[C@H]6C5)ncnc4n(-c4nnc(C(F)F)s4)c3c2)CC1 ... > 7.00
N#CC1(NS(=O)(=O)c2ccc3c4c(N5CCN(C(=O)N6CCCC6)CC5)ncnc4n(-c4nnc(C(F)F)s4)c3c2)CC1 ... > 7.00
CC(C)(N)C(=O)N1CCC(c2ncnc3c2c2ccc(S(=O)(=O)NC4(C#N)CC4)cc2n3-c2nnc(C(F)F)s2)CC1 ... 6.00 to 7.00
C[C@@H]1CN(c2ncnc3c2c2ccc(S(=O)(=O)NC4(C#N)CC4)cc2n3-c2nnc(C(F)F)s2)C[C@H](C)N1C(=O)CN1CCOCC1 ... > 7.00
CC1(NS(=O)(=O)c2ccc3c4c(C5CCN(C(=O)N6CCOCC6)CC5)ncnc4n(-c4nnc(C(F)F)s4)c3c2)CC1 ... > 7.00

---

Tested on: Kuramochi cell line
Assay: Cell Viability Assay (Cell Titer-Glo, 7 days)
Assay type: cell-based
Conditions: 168 h, Kuramochi cells, 7 days incubation, read-out: PARG Cell viability (IC50)
Protocol: Cell viability studies were conducted in Kuramochi cell line. Cells were maintained in RPMI (Hyclone, Catalog #: SH3080901B) supplemented with 10% v/v FBS (AusGeneX, Catalog #: FBS500-S), 1% v/v Penicillin Streptomycin (Gibco, Catalog #: 15140122). […] Cell viability was measured using the Cell Titer-Glo reagent (Promega, Catalog #: G7573) as manufacturer's instructions. Luminescence signal was measured with a multimode plate reader (Perkin Elmer, Envision 2105 or BMG, ClarioStar Plus). […]
pIC50: −log10 of the molar value.
REPORTED METRIC: pIC50

N#CC1(NS(=O)(=O)c2ccc3c4c(N5CC[C@@H](O)C5)ncnc4n(-c4nnc(C(F)F)s4)c3c2)CC1 ... 6.00 to 7.00
C[C@H]1CN(c2ncnc3c2c2cc(F)c(S(=O)(=O)NC4(C)CC4)cc2n3-c2nnc(C(F)F)s2)CCN1C(=O)N(C)C ... > 7.00
Cc1nc(N2CCN3CCOC[C@H]3C2)c2c3ccc(S(=O)(=O)NC4(C#N)CC4)cc3n(-c3nnc(C(F)F)s3)c2n1 ... > 7.00
COC(C)(C)C(=O)N1CCC(c2ncnc3c2c2ccc(S(=O)(=O)NC4(C#N)CC4)cc2n3-c2nnc(C(F)F)s2)CC1 ... > 7.00

This collection of values is drawn from patent US20250388589A1.
